Source listed as the OPERA property sets (Mansouri et al. 2018).

Note that class boundaries on log10 Koc (L/kg) are low: < 2; middle: ≥ 2 and < 3; high: ≥ 3

Example entries and their recorded answers appear below.
COMPOUND	LABEL VALUE
Cc1cc(Cl)ccc1OC(C)C(=O)O (stereo not given)	low
CCSCCSP(=O)(OC)OC	low
CC(C)C(Nc1ccc(C(F)(F)F)cc1Cl)C(=O)OC(C#N)c1cccc(Oc2ccccc2)c1 (stereo not given)	high
CC(C)N1C(=O)c2ccccc2NS1(=O)=O	low
O=C(NC(=O)c1c(F)cccc1F)Nc1ccc(Cl)cc1	high

Lookup: # bin label for `Oc1ccc(Cl)cc1Cl`
Found: middle

Lookup: Pick a category. Item: `Nc1ccc(Cl)cc1Cl`
Found: middle

Lookup: Dear colleague, I would appreciate it if you could identify the bin for `CCOC(=O)Nc1ccccc1` and reply at your convenience.
Found: low

Lookup: Category of `CC(N)=S` :
Found: low

Lookup: Please indicate the class for `OCc1cccc2ccccc12` based on its log10 Koc (L/kg).
Found: middle

Lookup: Assign a bin to `C#CC(C)(C)NC(=O)c1ccc(OC)cc1`
Found: low

Lookup: Classify this compound: `Clc1cccc(Cl)c1-c1c(Cl)cccc1Cl`
Found: high

Lookup: Which of the defined bands does the recorded log10 Koc (L/kg) of `O=[N+]([O-])c1ccc(Oc2c(Cl)cc(Cl)cc2Cl)cc1` sit within?
Found: high

Lookup: Record COP(N)(=O)SC (stereo not given) — which class?
Found: low

Lookup: GET /class?item= `CN(C)C(=O)Nc1cccc(Cl)c1`
Found: low

Lookup: Categorize the following entry: `CCCCN(CC)c1c([N+](=O)[O-])cc(C(F)(F)F)cc1[N+](=O)[O-]`
Found: high

Lookup: Please let me know in which category the item `c1ccc2c(c1)ccc1ncccc12` belongs.
Found: high

Lookup: Hello team, could you let me know which band the following compound falls into: CC(C)(C)C(=O)C(Oc1ccc(Cl)cc1)n1cncn1 (stereo not given)
Found: middle

Lookup: Given `O=[N+]([O-])c1ccccc1` , name the class its log10 Koc (L/kg) places it in.
Found: low

Lookup: Which bin should I file `CCCCCCCCOC(=O)c1ccccc1C(=O)OCCCCCCCC` under?
Found: high

Lookup: Returns: class label. Input: `CC(Cl)(Cl)C(=O)O`
Found: low

Lookup: Could you tell me which band `Clc1ccc(C(c2ccc(Cl)cc2)C(Cl)Cl)cc1` belongs to?
Found: high

Lookup: Which category fits this record: `Cn1cc(-c2ccccc2)c(=O)c(-c2cccc(C(F)(F)F)c2)c1`
Found: middle

Lookup: Using the reported log10 Koc (L/kg), which band applies to CCS(=O)CCSP(=O)(OC)OC (stereo not given) ?
Found: low

Lookup: Category lookup for the compound `NC(=O)c1ccccc1`
Found: low
